- target: Sodium-dependent serotonin transporter (Homo sapiens, UniProt P31645)
- Sequence (P31645 whole entry, looked up): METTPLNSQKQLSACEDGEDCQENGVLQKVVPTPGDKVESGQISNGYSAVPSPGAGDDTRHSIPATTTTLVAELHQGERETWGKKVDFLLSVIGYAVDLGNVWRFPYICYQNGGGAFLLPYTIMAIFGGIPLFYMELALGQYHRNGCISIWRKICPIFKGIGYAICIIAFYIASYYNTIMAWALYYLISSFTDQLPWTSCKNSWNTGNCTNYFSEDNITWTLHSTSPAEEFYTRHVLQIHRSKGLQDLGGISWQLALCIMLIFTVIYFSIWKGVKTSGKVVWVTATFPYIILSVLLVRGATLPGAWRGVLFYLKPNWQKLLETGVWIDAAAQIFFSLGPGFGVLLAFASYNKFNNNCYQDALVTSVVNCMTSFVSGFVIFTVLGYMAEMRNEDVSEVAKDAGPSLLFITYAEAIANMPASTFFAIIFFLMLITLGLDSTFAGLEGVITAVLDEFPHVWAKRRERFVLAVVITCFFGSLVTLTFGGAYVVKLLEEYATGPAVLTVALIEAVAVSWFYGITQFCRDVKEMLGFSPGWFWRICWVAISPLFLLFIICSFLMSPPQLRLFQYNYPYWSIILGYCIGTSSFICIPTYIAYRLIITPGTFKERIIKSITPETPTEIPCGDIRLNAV
- protocolDescription: Inhibition of human SERT expressed in human JAR cells at 1 uM
- Format: cell-based
Under this convention, TRUE denotes INH strictly below 50 µM and FALSE denotes INH at or above 50 µM.

Hi there! Is INH for OC1(C(CN2CCNCC2)c2csc3ccccc23)CCCCC1 (stereo unspecified) below 50 µM, do you know?
TRUE

* * *

- target: UniProt:P31645
- protocolDescription: Inhibition of human SERT expressed in human JAR cells at 1 uM
- Type: cell-based
INH for assorted compounds
# number only, unit µM dropped from output

Recorded results for 4 compounds are shown here.
>  <compound>
OC1(C(CN2CCNCC2)c2cc3ccccc3s2)CCCCC1 (stereo not given)

>  <reported>
89

$$$$
>  <compound>
OC1(C(CN2CCNCC2)c2cc(Cl)sc2Cl)CCCCC1 (stereo not given)

>  <reported>
12.2

$$$$
>  <compound>
OC1(C(CN2CCNCC2)c2c[nH]c3ccccc23)CCCCC1 (stereo not given)

>  <reported>
90

$$$$
>  <compound>
OC1(C(CN2CCNCC2)c2ccsc2Cl)CCCCC1 (stereo not given)

>  <reported>
34

$$$$

Now look at this one.
Print UniProt:P31645 INH for CN1CCN(C[C@@H](c2cccc(Cl)c2)C2(N)CCCCC2)CC1 .
32
